Measured kon accompanies every entry in the list below.
test.target: T1, truncated wild type EGFR 1-525 (EGFR1 (1-525)-SRGPF-Myc-NMHTG-6His) (human, UniProt P00533 25-525)
T1 construct: the signal peptide is left out; not shown: Myc tag
assay.method.text: SPR (Biacore), antibody captured via anti-human Fc, antigen injected
Report as a plain number; the unit M⁻¹ s⁻¹ is understood.

Bench note: what kon did Antibody O (AbO) (antibody, V domains shown, Full length IgG1; also called Antibody 0) VH: EVQLQESGPGLVKPSQTLSLTCTVSGYSIGKDFAWNWIRQPPGKGLEWMGYISYNGNTRYQPSLKSRITISRDTSKNQFFLKLNSVTAADTATYYCVTASRGFPYWGQGTLVTVSS VL: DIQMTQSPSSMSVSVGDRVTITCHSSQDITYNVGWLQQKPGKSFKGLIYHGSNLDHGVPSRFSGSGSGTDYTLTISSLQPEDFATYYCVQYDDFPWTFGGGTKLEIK show?
5250

Try this binder too: Antibody K (AbK) (antibody, V domains shown, Full length IgG1) VH: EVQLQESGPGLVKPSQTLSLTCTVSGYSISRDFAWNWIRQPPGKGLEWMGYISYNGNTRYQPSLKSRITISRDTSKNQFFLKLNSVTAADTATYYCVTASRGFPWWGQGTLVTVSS VL: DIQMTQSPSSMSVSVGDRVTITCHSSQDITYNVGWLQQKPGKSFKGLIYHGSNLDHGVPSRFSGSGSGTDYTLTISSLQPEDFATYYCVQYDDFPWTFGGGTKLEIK
4780

New cases:
Bench note: what kon did Antibody H (AbH) (antibody, V domains shown, Full length IgG1) VH: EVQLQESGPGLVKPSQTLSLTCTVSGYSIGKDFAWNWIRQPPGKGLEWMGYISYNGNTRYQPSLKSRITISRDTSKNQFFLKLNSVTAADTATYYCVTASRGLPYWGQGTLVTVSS VL: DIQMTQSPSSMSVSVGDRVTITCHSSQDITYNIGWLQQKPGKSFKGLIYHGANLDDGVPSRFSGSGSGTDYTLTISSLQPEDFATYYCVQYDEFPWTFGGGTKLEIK show?
7900

Try this binder too: Antibody M (AbM) (antibody, V domains shown, Full length IgG1) VH: EVQLQESGPGLVKPSQTLSLTCTVSGYSIGRDFAWNWIRQPPGKGLEWMGYISYNGNTRYQPSLKSRITISRDTSKNQFFLKLNSVTAADTATYYCVTASRGFPYWGQGTLVTVSS VL: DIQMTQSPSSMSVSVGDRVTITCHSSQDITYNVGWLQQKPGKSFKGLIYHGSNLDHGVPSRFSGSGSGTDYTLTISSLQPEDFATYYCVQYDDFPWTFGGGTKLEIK
3840

Try this binder too: Antibody G (AbG) (antibody, V domains shown, Full length IgG1) VH: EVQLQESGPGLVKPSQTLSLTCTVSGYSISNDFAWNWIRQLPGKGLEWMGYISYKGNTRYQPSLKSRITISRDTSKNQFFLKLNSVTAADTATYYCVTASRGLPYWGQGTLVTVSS VL: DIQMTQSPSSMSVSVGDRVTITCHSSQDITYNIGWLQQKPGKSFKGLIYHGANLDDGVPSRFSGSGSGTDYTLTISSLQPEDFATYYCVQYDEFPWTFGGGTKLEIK
6800

Try this binder too: Antibody D (AbD) (antibody, V domains shown, Full length IgG1) VH: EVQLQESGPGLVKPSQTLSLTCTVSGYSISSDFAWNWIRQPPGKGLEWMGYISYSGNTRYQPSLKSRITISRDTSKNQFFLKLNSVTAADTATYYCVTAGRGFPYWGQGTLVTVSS VL: DIQMTQSPSSMSVSVGDRVTITCHSSQDINSNLGWLQQKPGKSFKGLIYHGANLHDGVPSRFSGSGSGTDYTLTISSLQPEDFATYYCVQYAEFPWTFGGGTKLEIK
5820

Try this binder too: Antibody E (AbE) (antibody, V domains shown, Full length IgG1) VH: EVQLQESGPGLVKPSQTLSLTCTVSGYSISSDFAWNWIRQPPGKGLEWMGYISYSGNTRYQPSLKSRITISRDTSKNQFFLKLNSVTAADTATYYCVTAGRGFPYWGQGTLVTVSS VL: DIQMTQSPSSMSVSVGDRVTITCHSSQDINSNLGWLQQKPGKSFKGLIYHGSNLDHGVPSRFSGSGSGTDYTLTISSLQPEDFATYYCVQYDQFPWTFGGGTKLEIK
6170

Try this binder too: Antibody A (AbA) (antibody, human IgG1, kappa, V domains shown, IgG1) VH: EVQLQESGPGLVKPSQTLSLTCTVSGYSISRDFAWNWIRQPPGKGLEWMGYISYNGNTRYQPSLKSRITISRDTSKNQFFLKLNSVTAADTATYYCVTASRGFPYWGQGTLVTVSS VL: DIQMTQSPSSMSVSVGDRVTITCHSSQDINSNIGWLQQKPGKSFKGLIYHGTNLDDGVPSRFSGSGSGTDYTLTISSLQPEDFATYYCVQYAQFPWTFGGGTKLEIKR
3260

Try this binder too: Antibody N (AbN) (antibody, V domains shown, Full length IgG1) VH: EVQLQESGPGLVKPSQTLSLTCTVSGYSIGRDFAWNWIRQPPGKGLEWMGYISYSGNTRYQPSLKSRITISRDTSKNQFFLKLNSVTAADTATYYCVTASRGFPYWGQGTLVTVSS VL: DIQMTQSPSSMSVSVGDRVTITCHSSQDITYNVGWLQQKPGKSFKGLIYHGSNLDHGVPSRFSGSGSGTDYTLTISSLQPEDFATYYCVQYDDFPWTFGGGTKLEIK
4840

Try this binder too: Antibody F (AbF) (antibody, V domains shown, Full length IgG1) VH: EVQLQESGPGLVKPSQTLSLTCTVSGYSISRDFAWNWIRQPPGKGLEWMGYISYSGNTRYQPSLKSRITISRDTSKNQFFLKLNSVTAADTATYYCVTASRGFPYWGQGTLVTVSS VL: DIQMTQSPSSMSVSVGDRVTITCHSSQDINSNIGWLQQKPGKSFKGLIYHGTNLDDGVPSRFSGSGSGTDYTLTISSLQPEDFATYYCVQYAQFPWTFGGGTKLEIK
1980
